substrate: C=CC1=C(C)/C(=C/c2[nH]c(/C=C3N=C(/C=C4\NC(=O)C(C)=C4C=C)C(C)=C\3CCC(=O)O)c(CCC(=O)O)c2C)NC1=O; experiment: steady-state kinetics, A450 bilirubin formation; assay type: biochemical, Rattus norvegicus; conditions: 100 μM NADPH, 100 mM Tris-HCl pH 8.75
Quick list: kcat per entry.

protein	kcat / s⁻¹
rat BVR (Rattus norvegicus; R171E) (protein, C-terminal His tag (pET21a-rat bvr), E. coli BL21(DE3)) MDAEPKRKFGVVVVGVGRAGSVRLRDLKDPRSAAFLNLIGFVSRRELGSLDEVRQISLEDALRSQEIDVAYICSESSSHEDYIRQFLQAGKHVLVEYPMTLSFAAAQELWELAAQKGRVLHEEHVELLMEEFEFLRREVLGKELLKGSLRFTASPLEEERFGFPAFSGISELTWLVSLFGELSLISATLEERKEDQYMKMTVQLETQNKGLLSWIEEKGPGLKRNRYVNFQFTSGSLEEVPSVGVNKNIFLKDQDIFVQKLLDQVSAEDLAAEKKRIMHCLGLASDIQKLCHQKK	0.7
rat BVR (Rattus norvegicus; R171A) (protein, C-terminal His tag (pET21a-rat bvr), E. coli BL21(DE3)) MDAEPKRKFGVVVVGVGRAGSVRLRDLKDPRSAAFLNLIGFVSRRELGSLDEVRQISLEDALRSQEIDVAYICSESSSHEDYIRQFLQAGKHVLVEYPMTLSFAAAQELWELAAQKGRVLHEEHVELLMEEFEFLRREVLGKELLKGSLRFTASPLEEERFGFPAFSGISALTWLVSLFGELSLISATLEERKEDQYMKMTVQLETQNKGLLSWIEEKGPGLKRNRYVNFQFTSGSLEEVPSVGVNKNIFLKDQDIFVQKLLDQVSAEDLAAEKKRIMHCLGLASDIQKLCHQKK	6
rat BVR (Rattus norvegicus) (protein, C-terminal His tag (pET21a-rat bvr), E. coli BL21(DE3)) MDAEPKRKFGVVVVGVGRAGSVRLRDLKDPRSAAFLNLIGFVSRRELGSLDEVRQISLEDALRSQEIDVAYICSESSSHEDYIRQFLQAGKHVLVEYPMTLSFAAAQELWELAAQKGRVLHEEHVELLMEEFEFLRREVLGKELLKGSLRFTASPLEEERFGFPAFSGISRLTWLVSLFGELSLISATLEERKEDQYMKMTVQLETQNKGLLSWIEEKGPGLKRNRYVNFQFTSGSLEEVPSVGVNKNIFLKDQDIFVQKLLDQVSAEDLAAEKKRIMHCLGLASDIQKLCHQKK	69.3
rat BVR (Rattus norvegicus; Y97F) (protein, C-terminal His tag (pET21a-rat bvr), E. coli BL21(DE3)) MDAEPKRKFGVVVVGVGRAGSVRLRDLKDPRSAAFLNLIGFVSRRELGSLDEVRQISLEDALRSQEIDVAYICSESSSHEDYIRQFLQAGKHVLVEFPMTLSFAAAQELWELAAQKGRVLHEEHVELLMEEFEFLRREVLGKELLKGSLRFTASPLEEERFGFPAFSGISRLTWLVSLFGELSLISATLEERKEDQYMKMTVQLETQNKGLLSWIEEKGPGLKRNRYVNFQFTSGSLEEVPSVGVNKNIFLKDQDIFVQKLLDQVSAEDLAAEKKRIMHCLGLASDIQKLCHQKK	13.6
